This collection of values is drawn from a melting point compilation (Tetko et al.; mined from patent text by program, amines drawn as free bases though some values may be those of a salt).

Measured melting point by item

Known melting point results, listed for orientation:
COC(=O)c1cccc2c1c(C(C[N+](=O)[O-])C[N+](=O)[O-])cn2C :: 142 to 145 °C
CCCn1nnn(-c2ccc([N+](=O)[O-])cc2)c1=O :: 91.1 °C
CCCCOCCOc1ccc(-c2ccc3c(c2)C=C(C(=O)Nc2ccc(S(=O)Cc4nccn4CCCC(=O)NC)cc2)CCN3CC(C)C)cc1 (stereo unspecified) :: 159 to 161 °C

Dear colleague, I am looking for the recorded melting point of the following compound: C#CCC(CC#C)(C(=O)O)S(=O)(=O)c1ccc(OC)cc1
156 °C

Dear colleague, I am looking for the recorded melting point of the following compound: CCOC(=O)C(NC(=O)c1ccccc1)C(C)C (stereo unspecified)
74 °C

Dear colleague, I am looking for the recorded melting point of the following compound: CS(=O)(=O)OCc1nc2ccc(F)cc2s1
68 to 72 °C

Dear colleague, I am looking for the recorded melting point of the following compound: Cc1nccn1CCC(C(N)=O)(c1ccccc1)c1ccccc1
191 to 193 °C

Dear colleague, I am looking for the recorded melting point of the following compound: CC1CCC2C3CC(=O)C4=CC(=O)CCC4(C)C3CCC12C (stereo unspecified)
94 to 95 °C

Dear colleague, I am looking for the recorded melting point of the following compound: CC(C)CC(=O)Nc1cccc(-c2ccnc3c(-c4cccc(C(F)(F)F)c4)cnn23)c1
170 to 173 °C

Dear colleague, I am looking for the recorded melting point of the following compound: CC(C)n1nc(-c2cc(C(N)=O)cnc2-c2ccccc2)ccc1=O
229 to 230 °C

Dear colleague, I am looking for the recorded melting point of the following compound: Cc1nc(C)c(Cl)c(NCc2nccc(SCCCSCCO)c2C)n1
134 to 137 °C

Dear colleague, I am looking for the recorded melting point of the following compound: COc1cc2c(cc1OC)/C(=C\c1ccc(OP(=O)(O)O)cc1)C(=O)N2
218 to 220 °C

Dear colleague, I am looking for the recorded melting point of the following compound: O=C(Nc1ccccc1S(=O)(=O)NCC1CCCCC1)N[C@@H](Cc1ccc(NC(=O)c2c(Cl)cncc2Cl)cc1)C(=O)O
214 °C

----------
Measured melting point by item

Known melting point results, listed for orientation:
CCN(C(=O)OC)c1c(C(=O)c2cnoc2C2CC2)ccc(S(C)(=O)=O)c1Cl :: 128 to 131 °C
NC(=O)C1CCN(C(=O)CNC(=O)CNC(=O)CN2CCCC2=O)CC1 :: 225 to 227 °C
OCc1ccc(OCc2csc(-c3ccccc3)n2)nc1 :: 134 to 135 °C
CCOC(=O)Cc1c(C)nn(-c2ccc(OC)cc2)c1C :: 71 to 72 °C
CCCCCCc1cnc(-c2ccc(C#N)cc2)nc1 :: 53.5 to 54.5 °C

Dear colleague, I am looking for the recorded melting point of the following molecule: CSC(=S)C1(c2ccncc2)CCCS1 (stereo unspecified)
64 °C

Dear colleague, I am looking for the recorded melting point of the following molecule: CNC(=O)c1cc(C(=O)c2ccccc2)ccc1[N+](=O)[O-]
138 °C

Dear colleague, I am looking for the recorded melting point of the following molecule: Cc1nn(-c2c(Cl)cc(C(F)(F)F)cc2Cl)c(N)c1C#C[Si](C)(C)C
121 to 123 °C

Dear colleague, I am looking for the recorded melting point of the following molecule: Clc1ncn(CCOc2ccc(Oc3ccccc3)cc2)c1Cl
89 to 91 °C

Dear colleague, I am looking for the recorded melting point of the following molecule: COC(=O)C(C)Oc1cc(C)ccc1COc1ccc([N+](=O)[O-])c(F)c1 (stereo unspecified)
92 to 94 °C

Dear colleague, I am looking for the recorded melting point of the following molecule: CCOC(=O)c1c(O)c2sccc2[nH]c1=O
218 °C

----------
Measured melting point by item

O=C(O)Cc1cn(CCc2ccc(OCc3ccccc3)cc2)nc1-c1ccccc1 :: 199 to 200 °C

Now consider the entry below.
Dear colleague, I am looking for the recorded melting point of the following compound: O=C1c2ccccc2C(=O)N1Cc1noc(-c2ncn3c2[C@@H]2CCN2C(=O)c2sccc2-3)n1
155 to 157 °C

----------
value.kind: melting point

Known melting point results, listed for orientation:
O=C1N=c2ccc(OCCN3CC=C(Cc4ccccc4)CC3)cc2=N1 :: 202 to 203 °C
O=C1Nc2ccccc2C1CCCCN1CC=C(c2ccc(Cl)cc2)CC1 (centres undefined) :: 122 to 124 °C
N#Cc1ccc(C(=O)Nc2cccc(-n3nc(C(F)(F)F)cc3C(F)(F)F)c2)cc1 :: 133 to 134 °C
C#CCN(c1ccc(C(=O)OC(C)(C)C)cc1)C1CCc2cc3nc(COC(=O)C(C)(C)C)[nH]c(=O)c3cc21 (racemic) :: 134 °C
Cn1ncnc1COc1nc2c(cc1-c1ccoc1)nnn2-c1ccccc1F :: 145 to 146 °C
Clc1cc(Cl)c2nc(SCc3ccccc3)nn2c1 :: 115 to 116 °C
CCCN(C(N)=S)C(c1ccncc1)C1CC1 (centres undefined) :: 171 °C
O=C(O)CCOc1cccc(F)c1 :: 90 to 91 °C

Now consider the entry below.
Dear colleague, I am looking for the recorded melting point of the following compound: Cc1ccc(-c2ccccc2C(=O)Nc2ccc(C(=O)N3C[C@@H]4CCCN4C(=O)c4ccccc43)cc2)cc1
230 to 232 °C

----------
Measured melting point by item

Dear colleague, I am looking for the recorded melting point of the following compound: CCN1c2ncc(COc3cccc4[nH]ccc34)cc2C(=O)N(C)c2ccc(Cl)nc21
183 to 185 °C

Dear colleague, I am looking for the recorded melting point of the following compound: NC(=O)NC1CCCc2ccsc21 (stereo unspecified)
211 to 213 °C

Dear colleague, I am looking for the recorded melting point of the following compound: CC(=O)Nc1ncc(SCC(=O)O)s1
210 °C

Dear colleague, I am looking for the recorded melting point of the following compound: O=[N+]([O-])c1ccc2ccn(CCCCl)c2c1
85 to 87 °C

Dear colleague, I am looking for the recorded melting point of the following compound: CCc1cc(Cl)c(-n2ncc(C#N)c2N)c(Cl)c1
189 to 190 °C

Dear colleague, I am looking for the recorded melting point of the following compound: O=Cc1cc2cc(O)c(Cl)c(Cl)c2s1
197 to 198 °C

----------
Measured melting point by item

Known melting point results, listed for orientation:
CC(C)(C)c1cc(C=O)cc(Br)c1O :: 126 °C
CCN(C(=O)n1nnc2cc(Cl)c(Cl)cc21)c1ccccc1 :: 120 °C
COCOc1ccc(C(C(c2ccccc2)c2ccc(F)cc2)C(F)(F)F)cc1 (stereo unspecified) :: 85 to 88 °C
CCOC(=O)c1[nH]c2cc(C(F)(F)F)ccc2c1N :: 204 to 210 °C
CC(=O)N(C)Cc1ccc(F)cc1 :: 48 to 54 °C

Dear colleague, I am looking for the recorded melting point of the following compound: COc1cc(C)c(C(=O)c2c(Cl)cncc2Cl)c(OC)c1OC
109 to 111 °C

Dear colleague, I am looking for the recorded melting point of the following compound: O=C(Nc1ccccc1-c1nnn[nH]1)C(=O)N1CCC(Cc2ccc(F)cc2)CC1
107 to 109 °C

Dear colleague, I am looking for the recorded melting point of the following compound: N#Cc1cccnc1N1CCN(CC(=O)Nc2ccc(F)cc2)CC1
98 to 100 °C

Dear colleague, I am looking for the recorded melting point of the following compound: CN1CC(NC(=S)NC(=O)c2ccccc2)CC2c3cccc4[nH]cc(c34)CC21 (stereo unspecified)
224 to 225 °C

Dear colleague, I am looking for the recorded melting point of the following compound: Fc1cccc2sc(C3=CCNCC3)cc12
83 to 86 °C

Dear colleague, I am looking for the recorded melting point of the following compound: CS(=O)(=O)NCCCC1COCc2nc3c(N)nc4c(c3n21)CCCC4 (stereo unspecified)
197 to 200 °C

----------
Measured melting point by item

Known melting point results, listed for orientation:
C=C(Br)Cc1cccs1 :: 69 to 71 °C
CNC(=O)c1cccc2c1C1(COc3cc4c(cc31)OCCO4)C(=O)N2C (stereo not given) :: 120 to 122 °C
CCOC(=O)Nc1cc(C(=O)OC)c(O)c2ncc(Cc3ccc(F)cc3)cc12 :: 205 to 206 °C
CC(CN(C)C)CN1c2ccccc2OCOc2ccc(Cl)cc21 (single isomer, unassigned; (-)) :: 92 to 95 °C
COc1ccc(C(O)CNC(C)Cc2ccc(OCCO)cc2)cc1F (stereo not given) :: 112 to 115 °C

Dear colleague, I am looking for the recorded melting point of the following compound: CCC(CC)Nc1c([N+](=O)[O-])cc(C)c(COC(=O)NC)c1[N+](=O)[O-]
117 to 120 °C

Dear colleague, I am looking for the recorded melting point of the following compound: NC(=S)NNc1ccc(Cl)cc1
200 to 201 °C

Dear colleague, I am looking for the recorded melting point of the following compound: O=C(NCCCCCCOC(=O)N1CCC(OC(=O)NC2CCCCC2)CC1)Oc1ccc(Oc2ccccc2)cc1
138 to 142 °C

Dear colleague, I am looking for the recorded melting point of the following compound: S=c1n(CN2CCCC2)nc(-c2ccncc2)n1-c1ccccc1
139 °C

Dear colleague, I am looking for the recorded melting point of the following compound: O=c1oc(-c2cccc(Cl)c2)cc(O)c1SCc1ccccc1
136 to 137 °C
